- test method notes: Mouse pharmacokinetic study (i.v. and i.p.)
- Assay type: in vivo
- setup conditions: mouse, in vivo; IV 1 mg/kg, male Balb/c nude mice
observed property: AUC(0-t) (µM·h)
Field format: number, assumed µM·h, no unit text.

The measured AUC(0-t) associated with CC1(C)c2cccc(C(=O)NO)c2CN1c1cnc(C(F)(F)F)cn1 reads 1

* * *

What IC50 was measured for each of the following?
- target: full-length human HDAC11 (Homo sapiens (Human))
- Sequence (Q96DB2 whole entry): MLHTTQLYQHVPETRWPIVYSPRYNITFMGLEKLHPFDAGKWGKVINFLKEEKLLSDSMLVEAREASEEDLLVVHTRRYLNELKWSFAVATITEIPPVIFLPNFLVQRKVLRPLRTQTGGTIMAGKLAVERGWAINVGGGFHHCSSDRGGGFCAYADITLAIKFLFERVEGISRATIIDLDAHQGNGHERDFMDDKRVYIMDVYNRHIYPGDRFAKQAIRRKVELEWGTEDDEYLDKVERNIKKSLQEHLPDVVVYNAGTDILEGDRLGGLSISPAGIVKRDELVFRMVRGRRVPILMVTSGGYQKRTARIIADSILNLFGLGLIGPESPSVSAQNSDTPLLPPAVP
- test method notes: Probe binding HDAC11 time resolved fluorescence (TRF) assay
- setup conditions: Table 2, read-out: HDAC11 IC50 Range
Counter-ions that a name gives are not always drawn.

The measured IC50 associated with CCCc1cnc(N2Cc3cccc(C(=O)NO)c3C2)[nH]1 [Compound 1-3] reads > 1000 nM

The measured IC50 associated with CC1(C)c2cccc(C(=O)NO)c2CN1c1nc2ncc(C(F)(F)F)cc2o1 [Compound 26-2] reads < 500 nM

The measured IC50 associated with CC1(C)CCc2nc(N3Cc4cccc(C(=O)NO)c4C3)[nH]c2C1 [Compound 1-5, hydrochloride] reads 500 to 1000 nM

The measured IC50 associated with CC1(C)c2cccc(C(=O)NO)c2N[C@H]1c1ccc(C(F)(F)F)cc1 [Compound 40-5] reads 500 to 1000 nM

* * *

- test method notes: In vitro intrinsic clearance after incubation with mouse liver microsomes
- Assay type: in vitro ADME
- setup conditions: Table 5
What microsomal CLint was measured for each of the following?

The measured microsomal CLint associated with Cl.O=C(NO)c1cccc2c1CN(c1nc3c([nH]1)CCCC3)C2 [Compound 1-4, hydrochloride] reads > 100 µL/min/mg

The measured microsomal CLint associated with O=C(NO)c1cccc2c1CN(c1nc3ccccc3o1)C2 reads > 100 µL/min/mg

The measured microsomal CLint associated with O=C(NO)c1cccc2c1CN(c1nc3ccc(C(F)(F)F)cc3[nH]1)C2 reads > 100 µL/min/mg

The measured microsomal CLint associated with Cc1nc(N2Cc3cccc(C(=O)NO)c3C2)[nH]c1C.Cl [Compound 1-2, hydrochloride] reads 51 to 100 µL/min/mg

The measured microsomal CLint associated with Cl.O=C(NO)c1cccc2c1CN(c1ccc3ccccc3n1)C2 [Compound 7-2, hydrochloride] reads 51 to 100 µL/min/mg

The measured microsomal CLint associated with O=C(NO)c1cccc2c1CN(c1nc3ccccc3s1)C2 reads > 100 µL/min/mg

The measured microsomal CLint associated with O=C(NO)c1cccc2c1CN(c1ccc(C(F)(F)F)cn1)C2 reads 51 to 100 µL/min/mg

* * *

What microsomal CLint was measured for each of the following?
- test method notes: In vitro intrinsic clearance after incubation with mouse liver microsomes
- Assay type: in vitro ADME
- setup conditions: Table 4, read-out: m-CL-int

The measured microsomal CLint associated with O=C(NO)c1cccc2c1CCN(c1nc3ccccc3[nH]1)CC2 reads > 100 µL/min/mg

The measured microsomal CLint associated with O=C(NO)c1cccc2c1CN(c1nc3ccccc3[nH]1)C2 reads < 50 µL/min/mg

The measured microsomal CLint associated with O=C(NO)c1cccc2c1CCN(c1nc3ccccc3[nH]1)C2 reads < 50 µL/min/mg

* * *

- target: UniProt Q96DB2
- test method notes: Probe binding HDAC11 time resolved fluorescence (TRF) assay
- setup conditions: Table 2, read-out: HDAC11 IC50 Range
observed property: IC50

The measured IC50 associated with CC1(C)c2cccc(C(=O)NO)c2CN1c1nc2cnccc2o1 reads < 500 nM

The measured IC50 associated with O=C(NO)c1cccc2c1CN(c1nc3ccncc3o1)C2 reads > 1000 nM

The measured IC50 associated with CC1(C)c2cccc(C(=O)NO)c2CN1C(=O)Nc1ccc(C(F)(F)F)cc1 reads < 500 nM

The measured IC50 associated with COc1ccc(CN2Cc3cccc(C(=O)NO)c3C2)cc1 reads > 1000 nM

The measured IC50 associated with CC1(C)c2cccc(C(=O)NO)c2CN1c1nc2ccccc2s1 reads < 500 nM
